target: EGFR (Homo sapiens (Human)); test: Z'-LYTE / Adapta kinase assay, EGFR; type: biochemical; settings: read-out: EGFR % Inh. @ 100 nM
inhibition at 0.1 µM by entry:

Solved entries:
{"molecule": "CC(Nc1c(C#N)cnc2ccc(-c3cc(F)c(O)c(F)c3)cc12)c1ccccc1 (stereo not shown)", "reported-metric": "inhibition at 0.1 µM", "result": "10 to 80%"}
{"molecule": "CC(Nc1c(C#N)cnc2ccc(-c3cncc(C#N)c3)cc12)c1ccccc1 (stereo not shown)", "reported-metric": "inhibition at 0.1 µM", "result": "10 to 80%"}
{"molecule": "OCC(Nc1ncnc2ccc(-c3cnc4cnccn34)cc12)c1ccccc1 (stereo not shown)", "reported-metric": "inhibition at 0.1 µM", "result": "10 to 80%"}
{"molecule": "CS(=O)(=O)Nc1cc(-c2ccc3ncnc(Nc4ccc(F)c(Cl)c4)c3c2)cnc1Cl [Comparative Compound 2, reference compound]", "reported-metric": "inhibition at 0.1 µM", "result": "> 90%"}
{"molecule": "CC(Nc1c(C#N)cnc2ccc(-c3cnc(Cl)c(NS(C)(=O)=O)c3)cc12)c1ccccc1 (stereo not shown)", "reported-metric": "inhibition at 0.1 µM", "result": "80 to 90%"}

In: What is its inhibition at 0.1 µM for EGFR (Homo sapiens (Human))? Entry: CC(Nc1ncnc2ccc(-c3cnc4[nH]ncc4c3)cc12)c1ccccc1 (stereo not shown)
Out: 80 to 90%

In: Missing value: inhibition at 0.1 µM, EGFR (Homo sapiens (Human)), entry C[C@H](Nc1c(C#N)cnc2ccc(-c3cnc(Cl)c(NS(C)(=O)=O)c3)cc12)c1ccc(F)cc1 [Compound 97S] . Fill in?
Out: < 10%

In: Which measured inhibition at 0.1 µM belongs to CC(Nc1c(C#N)cnc2ccc(-c3cnc(N)c(C#N)c3)cc12)c1ccccc1 (stereo not shown) , tested on EGFR (Homo sapiens (Human))?
Out: 80 to 90%

---

molecular target: DNA-PK (Homo sapiens (Human), UniProt P78527); assay: Z'-LYTE / Adapta kinase assay, DNA-PK; type: biochemical; details: read-out: DNA-PK % Inh. @ 100 nM
Reported inhibition at 0.1 µM values for a set of compounds

Reference set (3 entries):
{"compound": "CC(Nc1ncnc2ccc(-c3cnc4cncn4c3)cc12)c1ccccc1 (centres unmarked)", "inhibition at 0.1 µM": "80 to 90%"}
{"compound": "CC(Nc1ncnc2ccc(-c3cnc4[nH]nnc4c3)cc12)c1ccccc1 (centres unmarked)", "inhibition at 0.1 µM": "10 to 80%"}
{"compound": "CC(Nc1c(C#N)cnc2ccc(-c3cncc(C(C)(C)O)c3)cc12)c1ccccc1 (centres unmarked)", "inhibition at 0.1 µM": "10 to 80%"}

In: # query: inhibition at 0.1 µM of entry C[C@H](Nc1c(C#N)cnc2ccc(-c3cnc(Cl)c(NS(C)(=O)=O)c3)cc12)c1ccc(F)cc1 [Compound 97S]
Out: > 90%

In: Fill in the blank: the reported inhibition at 0.1 µM of CC(Nc1ncnc2ccc(-c3cnc(N)c(S(C)(=O)=O)c3)cc12)c1ccccc1 (centres unmarked) is ____.
Out: > 90%

---

# inhibition at 0.1 µM listing for each entry below
target: EGFR (Homo sapiens (Human), UniProt P00533); assay: Z'-LYTE / Adapta kinase assay, EGFR; type: biochemical; conditions: read-out: EGFR % Inh. @ 100 nM
Sequence (P00533 25-1210): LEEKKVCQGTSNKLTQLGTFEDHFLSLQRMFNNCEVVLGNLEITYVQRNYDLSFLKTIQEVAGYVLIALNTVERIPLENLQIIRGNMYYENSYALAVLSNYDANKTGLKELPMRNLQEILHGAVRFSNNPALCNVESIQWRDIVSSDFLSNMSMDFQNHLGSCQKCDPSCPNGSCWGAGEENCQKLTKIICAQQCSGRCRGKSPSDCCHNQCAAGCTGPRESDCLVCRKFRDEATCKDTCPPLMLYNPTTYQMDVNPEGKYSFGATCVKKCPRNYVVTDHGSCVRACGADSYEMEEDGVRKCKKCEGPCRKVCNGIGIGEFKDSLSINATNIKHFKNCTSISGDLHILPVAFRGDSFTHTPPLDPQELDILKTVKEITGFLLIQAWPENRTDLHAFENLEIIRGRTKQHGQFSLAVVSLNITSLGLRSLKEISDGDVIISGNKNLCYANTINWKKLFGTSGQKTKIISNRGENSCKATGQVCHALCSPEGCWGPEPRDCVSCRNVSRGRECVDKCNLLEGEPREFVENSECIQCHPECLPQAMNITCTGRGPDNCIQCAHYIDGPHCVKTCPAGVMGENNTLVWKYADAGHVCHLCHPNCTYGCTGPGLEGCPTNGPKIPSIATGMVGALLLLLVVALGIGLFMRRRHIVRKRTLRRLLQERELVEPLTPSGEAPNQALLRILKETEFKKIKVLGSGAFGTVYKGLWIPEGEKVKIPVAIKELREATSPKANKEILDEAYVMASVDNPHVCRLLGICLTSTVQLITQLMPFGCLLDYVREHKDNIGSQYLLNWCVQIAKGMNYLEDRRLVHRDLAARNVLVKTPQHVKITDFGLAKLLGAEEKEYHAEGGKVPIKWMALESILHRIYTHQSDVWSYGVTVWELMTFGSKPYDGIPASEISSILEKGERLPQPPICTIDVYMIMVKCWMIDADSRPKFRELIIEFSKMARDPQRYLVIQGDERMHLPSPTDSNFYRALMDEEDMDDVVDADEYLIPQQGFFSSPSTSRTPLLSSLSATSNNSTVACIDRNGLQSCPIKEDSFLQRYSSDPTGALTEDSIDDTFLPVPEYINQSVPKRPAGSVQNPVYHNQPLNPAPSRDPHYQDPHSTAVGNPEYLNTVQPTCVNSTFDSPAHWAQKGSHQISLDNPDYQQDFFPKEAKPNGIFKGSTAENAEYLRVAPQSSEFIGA

In: I'd like to know its inhibition at 0.1 µM. The molecule in question is CC(Nc1ncnc2ccc(-c3cnc4cncn4c3)cc12)c1ccccc1 (centres unmarked)
Out: > 90%

In: Name the recorded inhibition at 0.1 µM for CC(Nc1c(C#N)cnc2ccc(-c3cnc4[nH]nnc4c3)cc12)c1ccccc1 (centres unmarked) .
Out: 80 to 90%

In: Quick one: inhibition at 0.1 µM of COc1cc(-c2ccc3ncc(C#N)c(NC(C)c4ccccc4)c3c2)cnc1OC (centres unmarked) ?
Out: 80 to 90%

In: Suppose we examine the molecule C[C@@H](Nc1ncnc2ccc(-c3cncc(C(=O)NC#N)c3)cc12)c1ccccc1 ; what inhibition at 0.1 µM value has been reported?
Out: < 10%

In: inhibition at 0.1 µM for CC(Nc1ncnc2ccc(-c3cnc(N)nc3)cc12)c1ccccc1 (centres unmarked) ?
Out: 80 to 90%

In: Can you share its inhibition at 0.1 µM? I mean this molecule: C[C@@H](Nc1ncnc2ccc(-c3cncc(C(=O)N(C)O)c3)cc12)c1ccccc1
Out: > 90%
